TEST METHOD NOTES: Toxicity in brine shrimp
Type: organism-based
ASSAY SETUP: artemia, in vivo; read-out: LD50 (the source's name)
# key: entry, value: LC50
ATTRIBUTE MEASURED: LC50 (nM)

COMPOUND	TEST RESULT
C=CC[C@@H](CC/C(C)=C/C=C\CC/C=C\[C@@H]1CSC([C@@H]2C[C@@H]2C)=N1)OC [CURACIN B]	38
C=CC[C@@H](CC/C(C)=C\C=C\CC/C=C\[C@@H]1CSC([C@@H]2C[C@@H]2C)=N1)OC [CURACIN C]	54
C=CC[C@@H](CC/C(C)=C/C=C/CC/C=C\[C@@H]1CSC([C@@H]2C[C@@H]2C)=N1)OC [CURACIN A]	8
